target: Histamine H1 receptor (Homo sapiens); assay: Displacement of [3H]pyrilamine from human recombinant H1R expressed in baculovirus infected Sf9 insect cell membranes co-expressing RGS4
Sequence (P35367 whole entry): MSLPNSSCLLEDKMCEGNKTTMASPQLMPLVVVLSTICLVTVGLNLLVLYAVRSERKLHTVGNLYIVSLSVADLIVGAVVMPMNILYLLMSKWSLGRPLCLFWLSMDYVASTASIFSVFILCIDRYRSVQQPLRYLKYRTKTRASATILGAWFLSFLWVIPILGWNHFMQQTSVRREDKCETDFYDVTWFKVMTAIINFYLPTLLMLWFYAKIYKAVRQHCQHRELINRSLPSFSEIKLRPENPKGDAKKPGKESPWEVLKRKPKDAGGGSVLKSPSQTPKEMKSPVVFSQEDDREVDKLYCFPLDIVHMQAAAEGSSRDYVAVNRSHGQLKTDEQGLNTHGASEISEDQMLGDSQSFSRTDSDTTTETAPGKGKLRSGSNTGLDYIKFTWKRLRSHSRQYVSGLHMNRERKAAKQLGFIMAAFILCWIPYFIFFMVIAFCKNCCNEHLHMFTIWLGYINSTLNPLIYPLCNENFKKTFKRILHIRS
test_readout: Ki

get_value(item= `Cc1cc(/C=C/C=C/c2ccc(N(C)C)cc2)cc(C)[n+]1CCCCc1c[nH]cn1.O=C(O)C(F)(F)F.O=C([O-])C(F)(F)F` , readout=Ki) returns > 4.79 µM

get_value(item= `Cc1cc(/C=C/C=C/c2ccc(N(C)C)cc2)cc(C)[n+]1CCCCCc1c[nH]cn1` , readout=Ki) returns > 4.79 µM

---

molecular target: Histamine H3 receptor (Homo sapiens); design: species or system Sf9
Sequence (Q9Y5N1 whole entry): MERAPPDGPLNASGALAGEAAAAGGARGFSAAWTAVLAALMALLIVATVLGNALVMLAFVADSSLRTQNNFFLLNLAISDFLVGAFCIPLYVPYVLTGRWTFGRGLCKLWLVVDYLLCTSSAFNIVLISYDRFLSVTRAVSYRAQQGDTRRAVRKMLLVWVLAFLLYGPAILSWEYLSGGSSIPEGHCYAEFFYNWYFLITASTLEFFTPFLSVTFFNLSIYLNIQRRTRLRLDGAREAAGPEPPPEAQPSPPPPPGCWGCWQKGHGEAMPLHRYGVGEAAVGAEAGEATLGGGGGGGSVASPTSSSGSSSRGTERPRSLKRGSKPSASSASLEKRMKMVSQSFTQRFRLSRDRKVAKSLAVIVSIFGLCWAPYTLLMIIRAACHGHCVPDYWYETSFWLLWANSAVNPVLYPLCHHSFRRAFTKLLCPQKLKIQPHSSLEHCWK
test_readout: Ki
Quick note: unit goes after the number.

get_value(item= `CC(C)(C)CNc1nccc(N2CCc3nc[nH]c3C2)n1` , readout=Ki) returns 3.16 nM

src = ChEMBL document CHEMBL4602733
